meta.source: paper PMC2819846

System: Salmonella TA104
assay info: Salmonella plate-incorporation mutagenicity assay, strain TA104, with S9 mix
Assay type: cell-based
condition notes: TA104 +S9, Test 2, 2 µg/plate; zero-dose 276/260/270
outcome measure: Rev/plate

                                   compound  outcome_measure  measured_result
0  c1ccc2c(c1)ccc1ccc3ccsc3c12 [P[4,3-b]T, Phenanthro[4,3-b]thiophene]        Rev/plate          414/432

Form field: reported Rev/plate of Nc1ccc2cc3ccccc3cc2c1 [2-aminoanthracene, reference compound]
1321/1392

Form field: reported Rev/plate of c1ccc2c(c1)ccc1ccc3sccc3c12 [P[3,4-b]T, Phenanthro[3,4,-b]thiophene]
569/553

Form field: reported Rev/plate of c1ccc2c(c1)ccc1ccc3ccccc3c12 [B[c]P, Benzo[c]phenanthrene]
570/609

Form field: reported Rev/plate of O[C@@H]1c2ccccc2-c2c(ccc3sccc23)[C@H]1O (racemic) [P[3,4-b]T 6,7-diol]
365/338

====

Tested on: Salmonella TA98
assay info: Salmonella plate-incorporation mutagenicity assay, strain TA98, with S9 mix
Assay type: cell-based
condition notes: TA98 +S9, Test 1, 10 µg/plate; zero-dose 33/40/39
API: label(entry) gives Fulfilled if the entry's Rev/plate is strictly smaller than 60 rev/plate; on equality or larger values it gives Not fulfilled.

Field: below-cutoff. Rule: recorded Rev/plate strictly less than 60 rev/plate. Subject: c1ccc2c(c1)ccc1ccc3ccsc3c12 [P[4,3-b]T, Phenanthro[4,3-b]thiophene]
Not fulfilled

Field: below-cutoff. Rule: recorded Rev/plate strictly less than 60 rev/plate. Subject: O[C@@H]1c2ccccc2-c2c(ccc3ccsc23)[C@H]1O (racemic) [P[4,3-b]T 6,7-diol]
Fulfilled

Field: below-cutoff. Rule: recorded Rev/plate strictly less than 60 rev/plate. Subject: O=S1(=O)C=Cc2c1ccc1ccc3ccccc3c21 [P[3,4-b]T sulfone, Phenanthro[3,4-b]thiophene sulfone]
Not fulfilled

Field: below-cutoff. Rule: recorded Rev/plate strictly less than 60 rev/plate. Subject: O[C@@H]1C=Cc2c(ccc3ccc4sccc4c23)[C@H]1O (racemic) [P[3,4-b]T 8,9-diol]
Not fulfilled

Field: below-cutoff. Rule: recorded Rev/plate strictly less than 60 rev/plate. Subject: O[C@@H]1c2ccccc2-c2c(ccc3ccccc23)[C@H]1O (racemic) [B[c]P 5,6-diol]
Fulfilled

====

Test system: Salmonella TA98
assay info: Salmonella plate-incorporation mutagenicity assay, strain TA98, with S9 mix
Format: cell-based
condition notes: TA98 +S9, Test 3, 80 µg/plate; zero-dose 49/50/50
Collected Rev/plate values appear next to each entry.

>>> print(df.to_string())
                                   molecule  measured_result
0  O[C@@H]1C=Cc2c(ccc3ccc4ccsc4c23)[C@H]1O (racemic) [P[4,3-b]T 8,9-diol]          828/725

Query for Salmonella TA98: what Rev/plate does the record show for O[C@@H]1C=Cc2c(ccc3ccc4sccc4c23)[C@H]1O (racemic) [P[3,4-b]T 8,9-diol] ?
448/459

Query for Salmonella TA98: what Rev/plate does the record show for O[C@@H]1C=Cc2c(ccc3ccc4ccccc4c23)[C@H]1O (racemic) [B[c]P 3,4-diol] ?
509/597

Query for Salmonella TA98: what Rev/plate does the record show for O[C@@H]1c2ccccc2-c2c(ccc3sccc23)[C@H]1O (racemic) [P[3,4-b]T 6,7-diol] ?
181/199
